Every entry's value here was drawn from PubChem BioAssay (Tox21).

assay: A CellTox Green Cytotoxicity Assay to monitor cytotoxicity in HEK293 cells - 24 hour (AID 1224875); settings: CellTox Green fluorescence; series mostly up to 76.8 µM; further: nearly all actives have a fitted effect of over 45% in size
Records with an inconclusive call do not appear. The source made the active and inactive calls. The call rests on the fitted dose curve; in most records, active means well fitted activation curve with a large enough effect in the repeat runs; inconclusive means weak or mixed curves; inactive means flat fitted curve, though single readings scatter.
One label from this list, please: T (active), F (inactive)

compound=CCN(CC)C(=S)[S-].CCN(CC)C(=S)[S-].[Zn+2] label_value=T
compound=NNC(=O)c1ccccc1 label_value=F
compound=CCCOCC(=Nc1ccc(Cl)cc1C(F)(F)F)n1ccnc1 label_value=T

Please share the test call associated with CCSC(C)CC1CC(=O)C(/C(CC)=N/OC/C=C/Cl)=C(O)C1 (stereo unspecified) . F

Dear colleague, could you share the recorded outcome for `COC(=O)N(C(=O)N1CO[C@@]2(C(=O)OC)Cc3cc(Cl)ccc3C2=N1)c1ccc(OC(F)(F)F)cc1` when you have a moment? F

Which outcome did this test record for the compound `CN(C)C1CSSSC1` ? F
